# TARGET ENTITY: ROCK1 (Homo sapiens)
# Construct: purchased Upstate/Chemicon 14-601
# Sequence (Q13464 17-535 limits assumed): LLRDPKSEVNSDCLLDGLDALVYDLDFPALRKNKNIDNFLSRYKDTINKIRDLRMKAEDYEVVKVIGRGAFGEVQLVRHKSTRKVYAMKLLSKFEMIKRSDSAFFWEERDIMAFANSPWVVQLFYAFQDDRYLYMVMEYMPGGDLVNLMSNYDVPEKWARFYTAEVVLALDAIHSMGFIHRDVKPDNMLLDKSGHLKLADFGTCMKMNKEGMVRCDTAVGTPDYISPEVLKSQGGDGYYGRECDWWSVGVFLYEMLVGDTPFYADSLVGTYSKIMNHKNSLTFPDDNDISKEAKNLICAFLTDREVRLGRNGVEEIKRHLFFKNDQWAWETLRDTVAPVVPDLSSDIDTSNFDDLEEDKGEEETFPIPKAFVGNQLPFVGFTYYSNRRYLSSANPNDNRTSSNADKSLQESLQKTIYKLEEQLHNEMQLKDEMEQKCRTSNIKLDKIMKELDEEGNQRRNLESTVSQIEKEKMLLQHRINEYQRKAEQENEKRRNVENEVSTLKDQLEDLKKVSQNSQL
# TEST DESCRIPTION: Rho kinase inhibition assay (IMAP fluorescence polarization), ROCK1;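 also: kinase reaction run 60 min at room temperature, then phosphorylated substrate captured on IMAP beads for 30 min, with fluorescence polarization read in mP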
# Format: biochemical
# STUDY CONDITIONS: Avg, 10 μM ATP
Strictly below 300 nM in Ki: criterion met. Otherwise: criterion not met.

These recorded examples may help you get a feel for the data.
| COMPOUND | TARGET ENTITY | CAT |
| --- | --- | --- |
| CSc1ccc(CN2CC[C@@H](Nc3cccc4cnccc34)C2)cc1 | ROCK1 (Homo sapiens) | criterion met |
| CS(=O)(=O)Cc1cccc(CN2CCC[C@@H](Nc3ccc4[nH]ncc4c3)C2)c1 | ROCK1 (Homo sapiens) | criterion met |
| C[C@@H](O)COc1cccc(CN2CCC[C@H](Nc3ccc4[nH]ncc4c3)C2)c1 | ROCK1 (Homo sapiens) | criterion not met |
| CS(=O)(=O)N1CCCc2cc(CN3CCC[C@H](Nc4ccc5[nH]ncc5c4)C3)ccc21 | ROCK1 (Homo sapiens) | criterion not met |
| Cc1ccc(CN2CC[C@@H](Nc3cccc4cnccc34)C2)cc1 | ROCK1 (Homo sapiens) | criterion met |

*Q* Report whether reported Ki is lower than 300 nM (strictly) for Cc1ccc(CN2CCC[C@@H](Nc3ccc4[nH]ncc4c3)C2)cc1OCC(N)=O
*A* criterion met

*Q* Now the compound NC(=O)Cn1ccc2cc(CN3CCC[C@@H](Nc4ccc5[nH]ncc5c4)C3)ccc21
*A* criterion met

*Q* Now the compound CCOC(=O)COc1cccc(CN2CCC[C@@H](Nc3ccc4[nH]ncc4c3)C2)c1
*A* criterion met

*Q* Now the compound Clc1ccc(CN2CC[C@@H](Nc3cccc4cnccc34)C2)cc1
*A* criterion met

*Q* Now the compound Cc1cccc(CN2CCC[C@H](Nc3ccc4[nH]ncc4c3)C2)c1
*A* criterion met

*Q* Now the compound c1ccc(Cn2cc(CN3CCC[C@@H](Nc4ccc5[nH]ncc5c4)C3)c3ccccc32)cc1
*A* criterion not met

*Q* Now the compound CCS(=O)(=O)Nc1cc(CN2CCC[C@H](Nc3ccc4[nH]ncc4c3)C2)ccc1C
*A* criterion met
